Origin of measurements: patent EP4356928A1

# Test system: HIV-2 (ROD)
# ASSAY_INFO: Inhibition of HIV-2 replication in wild-type CEM/0 cell cultures
# Type: cell-based
# EXPERIMENTAL_PARAMETERS: Human immunodeficiency virus 2, CCRF-CEM, read-out: Antiviral activity EC50 HIV-2 (ROD)
# Experimental: All β-phosph(on)ate prodrug compounds were evaluated for their activity to inhibit the replication of HIV in HIV-1- and HIV-2-infected wild-type (CEM/0) cell cultures and in HIV-2-infected mutant thymidine kinase-deficient (CEM/TK^-) cell cultures (see Table 3). Antiviral activity was determined in CD4^+ T-lymphocytes: 50% effective concentration (EC50 [µM]).
pEC50: −log10 of the molar value.
pEC50 vs 8: at or above is fulfilled, below is not fulfilled.

COMPOUND	CLASS
CCCCCCCCCCCCCCCCCCOP(=O)(OCCCC)OP(=O)(O)OC[C@H]1O[C@@H](n2cc(C)c(=O)[nH]c2=O)C[C@@H]1N=[N+]=[N-] (stereo partly drawn) [No 19]	not fulfilled
CCCCCCCCCCCCCCCCCCP(=O)(OCCCC)OP(=O)(O)OC[C@H]1O[C@@H](n2cc(C)c(=O)[nH]c2=O)C[C@@H]1N=[N+]=[N-] (stereo partly drawn) [No 20]	not fulfilled
CCCCCCCCCCCCCCCCCCOP(=O)(OCC(CC)CCCC)OP(=O)(O)OC[C@@H]1C=C[C@H](n2cc(C)c(=O)[nH]c2=O)O1 (stereo partly drawn) [No 17]	not fulfilled
CCCCCCCCCCCCCCCCCCP(=O)(OCCCC)OP(=O)(O)OC[C@H]1O[C@@H](n2cc(C)c(=O)[nH]c2=O)C[C@@H]1F (stereo partly drawn) [No 22]	not fulfilled
CCCCCCCCCCCCCCCCCCOP(=O)(OCCCC)OP(=O)(O)OC[C@@H]1C=C[C@H](n2cc(C)c(=O)[nH]c2=O)O1 (stereo partly drawn) [No 16]	fulfilled

---

# ASSAY_INFO: Cytotoxicity: inhibition of CD4+ T-cell (CEM) proliferation
# EXPERIMENTAL_PARAMETERS: human
# CC50 annotations
REPORTED_ENDPOINT: CC50

> print(dat)
                                   molecule  reported.endpoint    result
1  Cc1cn([C@H]2C[C@H](N=[N+]=[N-])[C@@H](CO)O2)c(=O)[nH]c1=O [AZT, zidovudine, reference compound]               CC50  > 100 µM
2  Cc1cn([C@H]2C[C@H](F)[C@@H](CO)O2)c(=O)[nH]c1=O [FLT, alovudine, reference compound]               CC50  > 100 µM
3  Nc1nc(NC2CC2)c2ncn([C@H]3C=C[C@@H](CO)C3)c2n1 [ABC, abacavir, reference compound]               CC50  > 100 µM
4  Cc1cn([C@H]2C=C[C@@H](CO)O2)c(=O)[nH]c1=O [d4T, stavudine, reference compound]               CC50   > 50 µM

---

# System: HIV-2 (ROD)
# ASSAY_INFO: Inhibition of HIV-2 replication in wild-type CEM/0 cell cultures
# Format: cell-based
# EXPERIMENTAL_PARAMETERS: Human immunodeficiency virus 2, CCRF-CEM, read-out: Antiviral activity EC50 HIV-2 (ROD)
pEC50: −log10 of the molar value.
REPORTED_ENDPOINT: pEC50

> print(dat)
                                   compound  readout.number
1  CCCCCCCCCCCCCCCCCCP(=O)(OCCCC)OP(=O)(O)OC[C@@H]1C=C[C@H](n2cnc3c(NC4CC4)nc(N)nc32)C1 (some centres unmarked)            7.59
2  CCCCCCCCCCCCCCCCCCP(=O)(OCCCC)OP(=O)(O)OC[C@H]1O[C@@H](n2ccc(=O)[nH]c2=O)C[C@@H]1F (some centres unmarked)            7.12
3  Cc1cn([C@H]2C=C[C@@H](CO)O2)c(=O)[nH]c1=O [d4T, stavudine, reference compound]            6.01
4  CCCCCCCCCCCCCCCCCCOP(=O)(OCCCC)OP(=O)(O)OC[C@H]1O[C@@H](n2ccc(=O)[nH]c2=O)C[C@@H]1F (some centres unmarked)            6.82
5  Cc1cn([C@H]2C[C@H](N=[N+]=[N-])[C@@H](CO)O2)c(=O)[nH]c1=O [AZT, zidovudine, reference compound]            8.47
6  CCCCCCCCCCCCCCCCCCOP(=O)(OCCCC)OP(=O)(O)OC[C@@H]1C=C[C@H](n2cnc3c(NC4CC4)nc(N)nc32)C1 (some centres unmarked)            8.06
7  Cc1cn([C@H]2C[C@H](F)[C@@H](CO)O2)c(=O)[nH]c1=O [FLT, alovudine, reference compound]            8.37
8  CCCCCCCCCCCCCCCCCCOP(=O)(OCCCC)OP(=O)(O)OC[C@H]1O[C@@H](n2cc(C)c(=O)[nH]c2=O)C[C@@H]1F (some centres unmarked)            7.40
